System: HepG2 (liver cancer)
Experiment summary: Cytotoxicity profiling (Alamar Blue), HepG2
Assay type: cell-based, human
Setup conditions: Homo sapiens; HepG2, Alamar Blue, 72-hour treatment (Table 6)
Protocol: FIG. 8. Cytotoxicity of pantaphos across various cancer cell lines. Assays were conducted as described (mBio. 2021 Feb. 2; 12(1):e03402-20), using the Alamar Blue method with 72-hour treatment using Raptinal ([…]) as Dead cell control; n=3. […] Cell culture cytotoxicity screening. The compounds were evaluated for their ability to kill cancer cell lines in culture, using HOS (osteosarcoma); ES-2 (ovarian cancer); HCT 116 (colon cancer); A549 (lung carcinoma); and A172 (glioma) cells. […]
pIC50: −log10 of the molar value.
Endpoint: pIC50

> print(dat)
                                   compound  endpoint  obs.value
1  O=C(O)/C=C(\C(=O)O)C(O)P(=O)(O)O (stereo not shown) [pantaphos, 2-(hydroxy(phosphono)methyl)maleate]     pIC50       5.37

---

Test system: HCT-116 (human colon cancer)
Experiment summary: Cell culture cytotoxicity screening (Alamar Blue), HCT-116
Format: cell-based
Setup conditions: HCT-116, Alamar Blue, 72 hours
Endpoint: IC50

> print(dat)
                                   compound                 tested.target  endpoint  obs.value
1  O=C(O)/C=C(\C(=O)O)C(O)P(=O)(O)O (stereo not shown) [pantaphos, 2-(hydroxy(phosphono)methyl)maleate]  HCT-116 (human colon cancer)      IC50    10.4 µM
